# System: Plasmodium falciparum
# assay-procedure: GSK_TCMDC: Inhibition of Plasmodium falciparum Dd2 in whole red blood cells, using parasite LDH activity as an index of growth. Test compounds present at 2uM
# Assay type: functional
test-readout: Inhibition (%)
Reply numerically in %, unit not repeated.

Known Inhibition results, listed for orientation:
- CC1Cc2ccccc2N1S(=O)(=O)c1cccc(C(=O)Nc2nc(-c3ccccn3)cs2)c1 (configuration not stated): 77
- CCOC(=O)c1ccc(N2CCN(CCCNC(=O)/C(=C/C=C/c3cc4cc(Cl)c(Cl)cc4[nH]3)OC)CC2)cc1: 72
- COc1ccc(C(=O)NCc2ccc(N)nc2C)cc1Nc1ncc(-c2cccc(N(C)C)c2)cn1: 68
- COc1cccc(Nc2nccc(-c3c(-c4cccc(NC(=O)c5c(F)cccc5F)c4)nn4ccccc34)n2)c1: 98
- Cc1nc2ccc(Nc3nccc(-c4c(-c5cccc(NC(=O)c6c(F)cccc6F)c5)nn5ccccc45)n3)cc2nc1C: 45
- O=C(/C=C/c1ccc(C(F)(F)F)cc1)NCCCCCN1CCN(C(=O)Nc2ccc(Cl)c(Cl)c2)CC1: 0

Input line: What does the data say about its Inhibition? Entry: Cc1cc(OCCCN2CCC(NS(=O)(=O)c3ccc(C(F)(F)F)cc3)CC2)c2ccccc2n1
Output line: 24

Input line: Need Inhibition, item CCCCCCC(N)c1ccc(OCCCOc2ccc(C(N)CCCCCC)cc2)cc1.Cl (configuration not stated)
Output line: 70

----------
Inhibition for assorted molecules
# Test system: Plasmodium falciparum
# assay-procedure: GSK_TCMDC: Inhibition of Plasmodium falciparum Dd2 in whole red blood cells, using parasite LDH activity as an index of growth. Test compounds present at 2uM
# Assay type: functional
Report as a plain number; the unit % is understood.

Take a look at these entries with their results.
• NC(=O)c1ccsc1NC(=O)CNC(c1ccccc1)c1ccc(Cl)cc1 (centres undefined) = 89
• Cc1cccc2nc(-c3ccc(-c4cccc(CNCCNC(=O)c5ccnn5C)c4)s3)[nH]c12.O=C(O)C(F)(F)F = 87
• Nc1ncnc2c1ncn2C(CO)Cc1ccc(O)cc1 (centres undefined) = 0
• Cc1ccc(CN2CCCCC(NC(=O)c3cc4ccccc4s3)C2)cc1.O=C(O)C(F)(F)F (centres undefined) = 8
• CC(C)=CCc1c(-c2ccc(O)cc2O)oc2c3c(cc(O)c2c1=O)OC(C)(C)C=C3 = 8

Input line: Any idea what Inhibition was measured for CC(=O)Nc1nc(C(=O)Nc2cccc(-c3cccc(-c4nc5cccc(C)c5[nH]4)c3)c2)cs1 ?
Output line: 94

Input line: Returns the measured Inhibition for the input molecule. Input: CN(C)c1ccc(-c2csc(C(=O)NC3CCCCN(CCC(C)(C)C)C3)c2)cc1.O=C(O)C(F)(F)F (centres undefined)
Output line: 68

Input line: Using the record for O=C(Nc1ccc(Cl)c(Cl)c1)Nc1ccccc1N1CCNCC1.O=C(O)C(F)(F)F , report its Inhibition.
Output line: 22

Input line: // Inhibition lookup, key: Cc1cc(N[C@@H](CC(C)C)C(=O)NCCc2ccccc2)nc(NCCc2ccc(F)cc2)n1.O=C(O)C(F)(F)F
Output line: 53

----------
# Test system: HepG2
# assay-procedure: GSK_TCMDC: Percent inhibition of human HepG2 cell line. Test compounds present at 10uM.
# Assay type: functional
test-readout: Inhibition (%)
# value in %; strip the unit string

Recorded results for 4 compounds are shown here.
• CCC(C)CN1CCN(c2ccc(NC(=O)c3cccs3)cc2)CC1C.O=C(O)C(F)(F)F (centres undefined) = 0
• O=C(C=Cc1ccc(Cl)c(Cl)c1)NCCCCCN1CCCC(CCCNC(=O)C2CC2c2ccccc2)C1 (centres undefined) = 48
• c1ccc(Oc2ccc(Nc3ccnc4ccc(-c5ccco5)cc34)cc2)cc1 = 0
• O=C(c1ccc(-c2cccc(-c3nc4cc(F)ccc4[nH]3)c2)cc1)N1CCCCC1CN1CCC(O)C1 (centres undefined) = 11

Input line: Value wanted: Inhibition (HepG2) of entry O=C(O)C(F)(F)F.c1ccc2[nH]c(-c3ccc(-c4ccc(CNC5CC5)cc4)s3)nc2c1
Output line: 25

Input line: Form field - read-out: Inhibition; system: HepG2; submitted item: CCCCCOc1c(CCC)cc(Cc2cnc(N)nc2N)cc1CCC
Output line: 58

Input line: Reported Inhibition for HepG2, given COc1ccccc1N1CCN(CCCCN(C(=O)Nc2cccc(Cl)c2)C(=O)Nc2cccc(Cl)c2)CC1.Cl ?
Output line: 4

Input line: Can you look up Inhibition on HepG2 for CC(C)Oc1cc(-c2ccc(S(C)(=O)=O)cc2)nc(N(Cc2cccc(F)c2F)Cc2cccc(F)c2F)n1 ?
Output line: 10

Input line: // fetch HepG2 Inhibition for COc1cc(Nc2ccc3cc(S(=O)(=O)N4CCCCC4C)ccc3n2)cc(OC)c1OC (centres undefined)
Output line: 0
